Kindly supply the reported TGI values for the records listed here.
- System: CAKI-1 renal
- experimentNotes: NCI tumour cell line growth inhibition, 48 h

# input Would you kindly share the measured TGI for "Cc1cccc(C)c1NC(=O)CCCC(=O)CC(=O)/C=C/c1ccccc1" ?
# output > 100 µM

# input Would you kindly share the measured TGI for "COc1ccccc1C1=C2C(=O)N(C)C(c3ccccc3OC)=C2C(=O)N1C" ?
# output > 100 µM

# input Would you kindly share the measured TGI for "COc1ccc(CNc2nc3cc(N)cc(N)c3nc2-c2ccccc2)cc1OC" ?
# output 26.2 µM

# input Would you kindly share the measured TGI for "Clc1ccc(-n2nnc(C3=NCCCN3)c2-c2ccccc2)cc1" ?
# output > 100 µM

# input Would you kindly share the measured TGI for "Cc1cc(C)c(O)c(CNCCCCCCNCc2cc(C)cc(C)c2O)c1" ?
# output 4.49 µM

# input Would you kindly share the measured TGI for O=C1CSC(c2cccc(Cl)c2)N1c1c(O)c(Cl)cc(Br)c1Cl (configuration not stated) ?
# output > 100 µM

# input Would you kindly share the measured TGI for "O=C(Nc1ccc(-n2cc(-c3ccncc3)c(-c3ccc(Cl)c(O)c3)n2)cc1)Nc1cc(C(F)(F)F)cc(C(F)(F)F)c1" ?
# output 3.57 µM

# input Would you kindly share the measured TGI for O=C(O)CCC(C(=O)O)N1C(=O)c2ccccc2C1=O (configuration not stated) ?
# output > 100 µM

# input Would you kindly share the measured TGI for "CC(=O)[C@H]1CC[C@H]2[C@@H]3CCC4=CC(=O)CC[C@]4(C)[C@H]3CC[C@]12C" ?
# output > 100 µM

# input Would you kindly share the measured TGI for "C=C(C)[C@@H]1CC[C@]2(CO)CC[C@]3(C)[C@H](CC[C@@H]4[C@@]5(C)CC[C@H](O)C(C)(C)[C@@H]5CC[C@]43C)[C@@H]12" ?
# output 29 µM

# input Would you kindly share the measured TGI for "C=C1CC[C@@]2(C#N)[C@H]3[C@H](CC[C@@H]2C)[C@@H](C)C[C@@H](CC(C)(C)C#N)[C@H]13" ?
# output > 100 µM

# input Would you kindly share the measured TGI for "CC(C)=NNc1cnnc2ccc([N+](=O)[O-])cc12" ?
# output > 100 µM

# input Would you kindly share the measured TGI for "O=C(Nc1ccc(Cl)cc1)c1cccc([N+](=O)[O-])c1O" ?
# output 17.1 µM

# input Would you kindly share the measured TGI for COC1/C(=C\C(=O)OC(C)(C)C)c2ccccc2N1C(C)=O (configuration not stated) ?
# output > 100 µM

# input Would you kindly share the measured TGI for Cc1ccc(S(=O)(=O)N(CC(O)c2ccccc2)c2ccccc2F)cc1 (configuration not stated) ?
# output 33.7 µM

# input Would you kindly share the measured TGI for "[N-]=[N+]=NC1=NNC2(C(=O)N1)c1ccccc1-c1ccccc12" ?
# output > 100 µM

# input Would you kindly share the measured TGI for "O=C1c2n[nH]nc2C(=O)c2n[nH]nc21" ?
# output > 100 µM

# input Would you kindly share the measured TGI for "CC(=O)NC1=C(Nc2ccc(C)cc2)C(=O)c2ccccc2C1=O" ?
# output > 75 µM

# input Would you kindly share the measured TGI for "O=C1CCCCCCCCCCC(=O)C2CCOCCOCCOCCC1Cc1cccc(n1)C2" ?
# output > 100 µM

# input Would you kindly share the measured TGI for "Cc1cccc(/C=N/NC(=S)N2CCCCCC2)n1" ?
# output 8.86 µM

# input Would you kindly share the measured TGI for CC1(C)CC(=O)C2=C(C1)NC(SCC(=O)O)=C(C#N)C2c1ccc(Br)cc1 (configuration not stated) ?
# output > 100 µM

# input Would you kindly share the measured TGI for "c1ccc2c(c1)CCN(C1=NCCO1)C2" ?
# output > 10 µM

# input Would you kindly share the measured TGI for "N#CN=C1c2ccccc2C(=NC#N)c2cc(CO)ccc21" ?
# output > 100 µM

# input Would you kindly share the measured TGI for COC(=O)c1c(C)ccc2c(O)c3c(cc12)C(=O)c1c2c(cc(O)c1C3=O)C1(C)OC(C)(O2)C(O)C(N(C)C)C1O (configuration not stated) ?
# output 6.32 µM

# input Would you kindly share the measured TGI for "CCCCCNC(=O)[C@@H]1CCCN2C(=O)CC[C@H](NC(=O)[C@H](Cc3ccc(OP(=O)(O)O)cc3)NC(C)=O)C(=O)N12" ?
# output > 25 µM

# input Would you kindly share the measured TGI for COc1ccc2c(c1)C1Oc3ccccc3CC1(O)CO2 (configuration not stated) ?
# output > 100 µM

# input Would you kindly share the measured TGI for "C=C(Cl)COC(=O)Nc1cccc(Cl)c1" ?
# output > 100 µM

# input Would you kindly share the measured TGI for "C=CC[C@H]1C[C@@]2(C)OC[C@H](C(C)C)N2C1=O" ?
# output > 100 µM

# input Would you kindly share the measured TGI for "CC1(C)NCCC[C@]2(C)[C@H]3C=CC4=C5C[C@](C)(CO)CC[C@]5(C)CC[C@@]4(C)[C@]3(C)CC[C@@H]12" ?
# output 13.8 µM

# input Would you kindly share the measured TGI for CN(C)CC(/C(Cc1ccccc1)=N\NC(=O)c1ccncc1)c1ccccc1 (configuration not stated) ?
# output > 100 µM

# input Would you kindly share the measured TGI for "CCN(CC)c1ccc(/C=c2\nc(-c3ccccc3)n3c2nc2ccccc23)cc1" ?
# output 9.72 µM

# input Would you kindly share the measured TGI for "S=c1[nH]c(=S)c2sc(=S)n(-c3ccccc3)c2[nH]1" ?
# output > 100 µM

# input Would you kindly share the measured TGI for "Cc1ccc(S(=O)(=O)Nc2nc3ccccc3c(=O)n2C2CCCCC2)cc1" ?
# output > 100 µM

# input Would you kindly share the measured TGI for "N#Cc1ccc(OC(=O)c2ccc(N=C(N)N)cc2)cc1" ?
# output > 100 µM

# input Would you kindly share the measured TGI for "CC(=O)Nc1nc(SCc2ccccc2)c2ncn(C(C)=O)c2n1" ?
# output > 100 µM

# input Would you kindly share the measured TGI for "CCN(CC)CCOc1ccc(Nc2ncc3cc(-c4ccc(O)cc4)c(=O)n(C)c3n2)cc1" ?
# output 16.1 µM

# input Would you kindly share the measured TGI for "Cc1ccccc1CN1CC2=C(CCN(Cc3ccccc3)C2=O)N2CCN=C12" ?
# output > 100 µM

# input Would you kindly share the measured TGI for "NNC(=Nc1ccccc1)SCc1ccccc1" ?
# output > 100 µM

# input Would you kindly share the measured TGI for "CN(C)Cc1cc(C(C)(C)C)cc(CNC2CCCCC2)c1O" ?
# output > 100 µM

# input Would you kindly share the measured TGI for NC(CCl)=NC1CN2CCC1CC2 (configuration not stated) ?
# output > 100 µM

# input Would you kindly share the measured TGI for "C=C1C[C@@H]2C/C=C/C(=O)C/C(C)=C\C=C\C(=O)O[C@H](C=O)C/C(C)=C/[C@H](C1)O2" ?
# output 26 µM

# input Would you kindly share the measured TGI for "Cn1nc(-c2ccccc2)c(N=[N+]=[N-])cc1=O" ?
# output > 100 µM

----------
- System: NCI-H460 lung
- experimentNotes: NCI tumour cell line growth inhibition, 48 h
Kindly supply the reported TGI values for the records listed here.

# input Would you kindly share the measured TGI for CCOP(=O)(CC1CC(O)(CNc2cc(Cl)nc(N)n2)C1)OCC (stereo unspecified) ?
# output > 100 µM

# input Would you kindly share the measured TGI for O=C(c1cc(F)c(Cl)cc1Cl)N1N=C(c2ccccc2)CC1(O)c1ccccc1 (stereo unspecified) ?
# output 36.7 µM

# input Would you kindly share the measured TGI for O=C1C(=Cc2ccco2)C(=O)C2CCCCC12 (stereo unspecified) ?
# output > 100 µM

# input Would you kindly share the measured TGI for "CC(=O)[C@H]1CC[C@H]2[C@@H]3CCC4=CC(=O)CC[C@]4(C)[C@H]3CC[C@]12C" ?
# output 42.4 µM

# input Would you kindly share the measured TGI for CCN(CC)c1ccc2c(c1)Oc1ccc(N(C(C)=O)c3ccccc3)cc1C21OC(=O)c2ccccc21 (stereo unspecified) ?
# output > 100 µM

# input Would you kindly share the measured TGI for "N#CCN1CCCCCc2ccccc21" ?
# output > 100 µM

# input Would you kindly share the measured TGI for "CN(C)NC1=NS(=O)(=O)c2cc3c(cc2S1)N(N(C)C)C(=O)c1cc2c(cc1N(N(C)C)C3=O)SC(NN(C)C)=NS2(=O)=O" ?
# output > 10 µM

# input Would you kindly share the measured TGI for "CCCCCCCCCNCCCCCCCCC" ?
# output 3.65 µM

# input Would you kindly share the measured TGI for "CN(C)CCCN=C(N)N" ?
# output > 100 µM

# input Would you kindly share the measured TGI for N#CC1=C(N)NC(=S)NC12Nc1ccccc1O2 (stereo unspecified) ?
# output > 100 µM

# input Would you kindly share the measured TGI for "CCOc1cc2c(cnc3c4cc(OC)c(OC)cc4ccc23)cc1OC" ?
# output > 100 µM
